meta.source: the supplement of paper PMC9170038

Exercise: for every item that follows, state its recorded apparent KD of K4 kissing-loop reporter.
System: K4 kissing-loop RNA reporter;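 also: bound reporter read as fluorescence of individual clusters on recovered sequencing chips by microscopy, with normalized cluster intensities fitted with a binding model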
Assay: apparent KD of K4 kissing-loop reporter; higher = weaker reporter binding
Conditions: Eterna round: R107; input ligand: arginine 13.2 mM
Give bare numbers, in nM.

Answered examples (5):
[[record]]
sequenceentry = "GCCGUAGAUCGAAGGAGCGUGCAAGAAUCGUAGUGAUGUUACGGAGAGUGUCACGCCGUCGCACAGGUAGGUCGCGAUCUACGGC"
testedsystem = "K4 kissing-loop RNA reporter"
readoutunits = "nM"
resultnumber = 76.4

[[record]]
sequenceentry = "UAUUCUGUUCGAAAGAACGGAAUUUCGGAAGGAGCGAGAGAAAUCUCAGGUAGGUCGCCGAAAUUAUUAGGUAGUGAUGUUACCU [Arginine A K4 5]"
testedsystem = "K4 kissing-loop RNA reporter"
readoutunits = "nM"
resultnumber = 116

[[record]]
sequenceentry = "GGUAGCAUGGCGGCCGCCACUCUUCAUUAGUGAUGUUAAUGCCGAGUGCGCUAACUCCAACAGGAGAGGACCGGGCCAUGCUACC"
testedsystem = "K4 kissing-loop RNA reporter"
readoutunits = "nM"
resultnumber = 445

[[record]]
sequenceentry = "AAGGGCAGGACUUCCUUGCCGGAUAGAGAUACCAGCCCAGCAAAGGGCCCUUGGCAGCUCACUGACCUCAGUGAUGUUGAGGUUC [Xebisoer]"
testedsystem = "K4 kissing-loop RNA reporter"
readoutunits = "nM"
resultnumber = 268

[[record]]
sequenceentry = "AACUCUCAGACACUUGAGUGAUGUUCAGACCGAGGACCGGUACGGCCGCCACUCGGGUCUGAGAGAGGUUAUCAAAGAUAGCCAA [Omei KL Tryp A SS A v7]"
testedsystem = "K4 kissing-loop RNA reporter"
readoutunits = "nM"
resultnumber = 222


Documented apparent KD of K4 kissing-loop reporter of AAGUGAUGUUGUAGUGAUGUUGUGAUGUUGCAGGAUAUAUAGUGAUGUAGAAGGGUAUGUACAGAUUUUUUUUUUGAGUGAUGAU [ffdcmullin] : 37.1
